# System: HEK-293T
# assay_explanation: Multiplex assay against HEK293T
# Assay type: toxicity, cell-based
# condition_parameters: human, 12 h, 1 µM, compound concentration 1 uM, replicate 1
quantity_measured: Population Pyknosed Nuclei (%)
Please give a number only; it is taken to be in %.

# input Name the recorded Population Pyknosed Nuclei (%) for OC1(c2ccc(Cl)cc2)CCN(Cc2c[nH]c3ccccc23)CC1 .
# output 65

Could you now consider this next compound?
# input Name the recorded Population Pyknosed Nuclei (%) for NC(=O)Nc1cc(-c2cccc(F)c2)sc1C(=O)N[C@H]1CCCNC1 [AZD-7762] .
# output 26

----------
# Tested on: Fibroblast
# assay_explanation: Multiplex assay against human fibroblast
# Assay type: toxicity, cell-based
# condition_parameters: 24 h, 1 µM, compound concentration 1 uM, replicate 2
quantity_measured: Population Apoptotic (%)
Please give a number only; it is taken to be in %.

Examples with their reported Population Apoptotic (%) follow.
# input Find Population Apoptotic (%) (Fibroblast) for the entry COc1cc(-n2cnc3cc(-c4ccc(Cl)cc4)sc3c2=O)ccc1OCCN1CCCC1
# output 62

# input Find Population Apoptotic (%) (Fibroblast) for the entry COc1ncc(-c2ccc3nccc(-c4ccnnc4)c3c2)cc1NS(=O)(=O)c1ccc(F)cc1F
# output 33

# input Find Population Apoptotic (%) (Fibroblast) for the entry CC(C)(O)CNc1ncc(-c2ccnc(Nc3ccnc(Cl)c3)n2)c(CC2CC2)n1
# output 20

# input Find Population Apoptotic (%) (Fibroblast) for the entry CNc1nc(NCc2ccc(NS(C)(=O)=O)cc2Cl)cc(-c2ccccn2)n1
# output 25

# input Find Population Apoptotic (%) (Fibroblast) for the entry CN(C)CC#Cc1ccc(OCCCc2sc(N3CCc4cccc(C(=O)Nc5nc6ccccc6s5)c4C3)nc2C(=O)O)c(F)c1
# output 50

Continuing:
# input Find Population Apoptotic (%) (Fibroblast) for the entry CN1CCCC(n2nc(Cc3ccc(Cl)cc3)c3ccccc3c2=O)CC1.Cl (stereo unspecified) [AZELASTINE HYDROCHLORIDE]
# output 50

# input Find Population Apoptotic (%) (Fibroblast) for the entry CN(C)C(=O)N[C@H]1CC[C@H](CCN2CCN(c3cccc(Cl)c3Cl)CC2)CC1.Cl [CARIPRAZINE HYDROCHLORIDE]
# output 66

# input Find Population Apoptotic (%) (Fibroblast) for the entry CCN(CC)CCCCNc1ncc2cc(-c3cc(OC)cc(OC)c3)c(NC(=O)NC(C)(C)C)nc2n1
# output 62

# input Find Population Apoptotic (%) (Fibroblast) for the entry COc1cccc([C@@H](C)NCCCc2ccccc2Cl)c1.Cl [TECALCET HYDROCHLORIDE]
# output 77

# input Find Population Apoptotic (%) (Fibroblast) for the entry NC(=O)Nc1cc(-c2cccc(F)c2)sc1C(=O)N[C@H]1CCCNC1
# output 0

----------
Form field: Population Apoptotic (%) (one value per entry).
# Tested on: HEK-293T
# assay_explanation: Multiplex assay against HEK293T
# Format: toxicity, cell-based
# condition_parameters: human, 48 h, 10 µM, compound concentration 10 uM, replicate 1
Please give a number only; it is taken to be in %.

Examples with their reported Population Apoptotic (%) follow.
# input Name the recorded Population Apoptotic (%) for CNc1nc(NCc2ccc(NS(C)(=O)=O)cc2Cl)cc(-c2ccccn2)n1 .
# output 74

# input Name the recorded Population Apoptotic (%) for CN1CCN(c2ccc(OC(F)(F)F)c(Nc3ncc4c(n3)-c3c(c(C(N)=O)nn3CCO)CC4)c2)CC1 .
# output 64

# input Name the recorded Population Apoptotic (%) for c1cn2cc(-c3ccc4cn[nH]c4c3)nc(Nc3ccc(N4CCOCC4)cc3)c2n1 .
# output 23

# input Name the recorded Population Apoptotic (%) for OC1(c2ccc(Cl)cc2)CCN(Cc2c[nH]c3ccccc23)CC1 .
# output 71

# input Name the recorded Population Apoptotic (%) for CC(C)NCC(O)COc1ccc(CCOCC2CC2)cc1.Cl (centres undefined) [BETAXOLOL HYDROCHLORIDE] .
# output 67

# input Name the recorded Population Apoptotic (%) for COc1cc2nccc(Oc3ccc(NC(=O)Nc4cc(C)on4)c(Cl)c3)c2cc1OC.O .
# output 73

# input Name the recorded Population Apoptotic (%) for CN(C)C(=O)N[C@H]1CC[C@H](CCN2CCN(c3cccc(Cl)c3Cl)CC2)CC1.Cl [CARIPRAZINE HYDROCHLORIDE] .
# output 78

# input Name the recorded Population Apoptotic (%) for C[C@@H](NCCCc1cccc(C(F)(F)F)c1)c1cccc2ccccc12.Cl [CINACALCET HYDROCHLORIDE] .
# output 90

Could you now consider this next compound?
# input Name the recorded Population Apoptotic (%) for Cc1cc(C)cc(-c2cnc3cc(Cl)c(-c4cccc(O)c4)cc3c2OCCCN)c1 .
# output 80

----------
# System: Fibroblast
# assay_explanation: Multiplex assay against human fibroblast
# Assay type: toxicity, cell-based
# condition_parameters: 48 h, 10 µM, compound concentration 10 uM, replicate 1
quantity_measured: Population Tubulin-Different-Phenotype (%)
Please give a number only; it is taken to be in %.

# input Name the recorded Population Tubulin-Different-Phenotype (%) for COc1cc2nccc(Oc3ccc(NC(=O)Nc4cc(C)on4)c(Cl)c3)c2cc1OC.O .
# output 83

# input Name the recorded Population Tubulin-Different-Phenotype (%) for Cl.N#Cc1ccc2[nH]cc(CCCCN3CCN(c4ccc5oc(C(N)=O)cc5c4)CC3)c2c1 [VILAZODONE HYDROCHLORIDE] .
# output 51

# input Name the recorded Population Tubulin-Different-Phenotype (%) for COc1ncc(-c2ccc3nccc(-c4ccnnc4)c3c2)cc1NS(=O)(=O)c1ccc(F)cc1F .
# output 82

# input Name the recorded Population Tubulin-Different-Phenotype (%) for CN1CCN(CCOc2cc(OC3CCOCC3)c3c(Nc4c(Cl)ccc5c4OCO5)ncnc3c2)CC1 .
# output 89

# input Name the recorded Population Tubulin-Different-Phenotype (%) for C[C@@H](NCCCc1cccc(C(F)(F)F)c1)c1cccc2ccccc12.Cl [CINACALCET HYDROCHLORIDE] .
# output 80

Continuing:
# input Name the recorded Population Tubulin-Different-Phenotype (%) for COc1cccc([C@@H](C)NCCCc2ccccc2Cl)c1.Cl [TECALCET HYDROCHLORIDE] .
# output 60

# input Name the recorded Population Tubulin-Different-Phenotype (%) for C=CC(=O)Nc1ccc2ncnc(Nc3ccc(OCc4cccc(F)c4)c(Cl)c3)c2c1.Cc1ccc(S(=O)(=O)O)cc1 .
# output 49

# input Name the recorded Population Tubulin-Different-Phenotype (%) for C=CC(=O)Nc1cccc(C(=O)Nc2ccc(Nc3cc(-c4[nH]c(SC)nc4C)ccn3)cc2)c1 .
# output 23

# input Name the recorded Population Tubulin-Different-Phenotype (%) for CC[C@H](C)C(=O)O[C@H]1C[C@@H](C)C=C2C=C[C@H](C)[C@H](CC[C@@H]3C[C@@H](O)CC(=O)O3)[C@H]21 .
# output 29

# input Name the recorded Population Tubulin-Different-Phenotype (%) for CN1CCN(c2ccc(OC(F)(F)F)c(Nc3ncc4c(n3)-c3c(c(C(N)=O)nn3CCO)CC4)c2)CC1 .
# output 69

# input Name the recorded Population Tubulin-Different-Phenotype (%) for CCOCCn1cc(C(=O)Nc2ccc(-n3nc(-c4cccnc4)cc3C(F)(F)F)cn2)ccc1=O .
# output 86

# input Name the recorded Population Tubulin-Different-Phenotype (%) for O=C1NCN(c2ccccc2)C12CCN(CCCOc1ccc(F)cc1)CC2 [SPIRAMIDE] .
# output 80

# input Name the recorded Population Tubulin-Different-Phenotype (%) for CN(C)CC#Cc1ccc(OCCCc2sc(N3CCc4cccc(C(=O)Nc5nc6ccccc6s5)c4C3)nc2C(=O)O)c(F)c1 .
# output 81

----------
# Test system: Fibroblast
# assay_explanation: Multiplex assay against human fibroblast
# Format: toxicity, cell-based
# condition_parameters: 12 h, 10 µM, compound concentration 10 uM, replicate 1
Form field: Population Mitotic Cells (%) (one value per entry).
Please give a number only; it is taken to be in %.

# input Name the recorded Population Mitotic Cells (%) for CC[C@H](C)C(=O)O[C@H]1C[C@@H](C)C=C2C=C[C@H](C)[C@H](CC[C@@H]3C[C@@H](O)CC(=O)O3)[C@H]21 [LOVASTATIN] .
# output 50

# input Name the recorded Population Mitotic Cells (%) for COc1cccc([C@@H](C)NCCCc2ccccc2Cl)c1.Cl [TECALCET HYDROCHLORIDE] .
# output 37

# input Name the recorded Population Mitotic Cells (%) for C=CC(=O)Nc1ccc2ncnc(Nc3ccc(OCc4cccc(F)c4)c(Cl)c3)c2c1.Cc1ccc(S(=O)(=O)O)cc1 .
# output 22

Continuing:
# input Name the recorded Population Mitotic Cells (%) for Cn1cc(-c2[nH]c3cc(NC(=O)[C@H](N)C4CCCCC4)cc4c3c2C=NNC4=O)cn1 .
# output 30

# input Name the recorded Population Mitotic Cells (%) for COc1cc(-n2cnc3cc(-c4ccc(Cl)cc4)sc3c2=O)ccc1OCCN1CCCC1 .
# output 37
